tested on: HIV-1 reverse transcriptase mutant K103N; assay: High throughput cytopathic effect assay in MT-4 cells, K103N mutant; assay type: cell-based; details: fold change of MT4 EC50 versus w.t. assay 2
MEASURED_PROPERTY: FC against mutant K103N
Respond using a number only.

// solved cases for FC against mutant K103N follow
Challenge: Can you share its FC against mutant K103N? I mean this compound: CNc1nc(Nc2ccc(C#N)cc2)nc2c(-c3c(C)cc(/C=C/C#N)cc3C)cccc12
Response given: 1.3

Challenge: Can you share its FC against mutant K103N? I mean this compound: COc1ccc(-c2c(C)cc(/C=C/C#N)cc2C)c2nc(Nc3ccc(C#N)cn3)nc(N)c12
Response given: 1.8

Challenge: Can you share its FC against mutant K103N? I mean this compound: C/C(=C\C#N)c1cc(C)c(-c2cccc3c(N)nc(Nc4ccc(C#N)cc4)nc23)c(C)c1
Response given: 0.9

Challenge: Can you share its FC against mutant K103N? I mean this compound: Cc1cc(/C=C/C#N)cc(C)c1-c1cccc2c(NC(N)=O)nc(Nc3ccc(C#N)cc3)nc12
Response given: 1.2

Challenge: Can you share its FC against mutant K103N? I mean this compound: Cc1cc(/C=C/C#N)cc(C)c1-c1cccc2c(NCC3CC3)nc(Nc3ccc(C#N)cc3)nc12
Response given: 1.0

Challenge: Can you share its FC against mutant K103N? I mean this compound: Cc1cc(/C=C/C#N)cc(C)c1-c1cccc2c(N)nc(Nc3ccc(C#N)c(C)n3)nc12
Response given: 1.7

***
Challenge: Can you share its FC against mutant K103N? I mean this compound: Cc1cc(/C=C/C#N)cc(C)c1-c1cc(F)cc2c(N)nc(Nc3ccc(C#N)cn3)nc12
Response given: 1.1

Challenge: Can you share its FC against mutant K103N? I mean this compound: CCCCNc1nc(Nc2ccc(C#N)cc2)nc2c(-c3c(C)cc(/C=C/C#N)cc3C)cccc12
Response given: 1.1
